# assaySummary: Cytotoxicity against mouse HT22 cells at 10 uM after 24 hrs by MTT assay
# Assay type: cell-based
# conditionDetails: ht-22, 24 h
Mark 1 for reported Activity of 20% or greater; mark -1 for anything smaller.

Field: example entries. Status: answers known.
CCCCC/C=C/C/C=C/CCCCCCCC(=O)NCCCCCC(=O)OCC(O)C1OC(=O)C(OCc2ccccc2)=C1OCc1ccccc1 (stereo not given) | -1
CCCCC/C=C\C/C=C\CCCCCCCC(=O)NCCCCCC(=O)OCC(O)C1OC(=O)C(O)=C1O (stereo not given) | -1

Would you say CC1=CC(=O)CC(C)(C)C1(O)/C=C/C(C)=C/C(=O)NC(CO)C(=O)O (stereo not given) shows Activity at minimum 20%?
1

Would you say CCCCCCCCCCCCCCCCCC(=O)NC(CO)P(=O)(OC)OC (stereo not given) shows Activity at minimum 20%?
-1

Would you say CCCCCCCCCCCCCCCCCC(=O)NC(CO)P(=O)(O)O (stereo not given) shows Activity at minimum 20%?
1

====

# assaySummary: Cytotoxicity against mouse HT22 cells at 10 uM after 24 hrs by MTT assay
# Assay type: cell-based
# conditionDetails: ht-22, 24 h
Mark yes (1) for reported Activity of 20% or greater; mark no (0) for anything smaller.

Field: example entries. Status: answers known.
CCOC(=O)C(CO)NC(=O)/C=C(C)/C=C/C1(O)C(C)=CC(=O)CC1(C)C (stereo unspecified) | no (0)
CCOC(=O)C(CO)NC(=O)[C@@]1(C)CCC[C@@]2(C)C1CC=C1C=C(C(C)C)CC[C@H]12 (stereo partly specified) | yes (1)
CCCCC/C=C/C/C=C/CCCCCCCC(=O)NC(C(=O)OCC)c1nnn[nH]1 (stereo unspecified) | no (0)
CCCCCCCCCCCCCCCCCC(=O)NCCCCCC(=O)OCC(O)C1OC(=O)C(O)=C1O (stereo unspecified) | yes (1)
CC(C)C1=CC2=CCC3[C@](C)(CCC[C@]3(C)C(=O)NC(CO)C(=O)O)[C@@H]2CC1 (stereo partly specified) | yes (1)
O=c1c(O)c(-c2ccc(O)c(O)c2)oc2cc(O)ccc12 | no (0)

Would you say CCCCCCCCCCCCCCCCCC(=O)NC(CO)C(=O)O (stereo unspecified) shows Activity at minimum 20%?
yes (1)

Would you say CCCCCCCCCCCCCCCCCC(=O)NC(CO)C(=O)OCC (stereo unspecified) shows Activity at minimum 20%?
yes (1)

Would you say CCCCCCCCCCCCCCCCCC(=O)NCCCCCC(=O)OCC(O)C1OC(=O)C(OCc2ccccc2)=C1OCc1ccccc1 (stereo unspecified) shows Activity at minimum 20%?
yes (1)

Would you say CCOC(=O)C(CO)NC(=O)C=C(C)/C=C/C=C(C)/C=C/C1=C(C)CCCC1(C)C (stereo unspecified) shows Activity at minimum 20%?
no (0)
